The reported measurements were obtained from the supplement of paper PMC11208160.

- assay-protocol: recombinant barcode read abundance after kanamycin selection (control-corrected) (log10(CPM+1)); higher = more efficient recombination; sequences stand for … in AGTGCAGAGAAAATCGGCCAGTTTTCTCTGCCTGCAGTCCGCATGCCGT…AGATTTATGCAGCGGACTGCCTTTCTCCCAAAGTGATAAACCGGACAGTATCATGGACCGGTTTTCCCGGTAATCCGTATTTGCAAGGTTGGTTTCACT; site = the 11-nt target;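 also: IS621 recombinase and bridge RNA in Escherichia coli cells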
measured-property: recombinant barcode read abundance (log10)

Guide cases for recombinant barcode read abundance (log10), answers given:
item-sequence | measurement
GTGACTGCTTGGGTTCTAACCTGTTGCGT (site CACTAGACTCG) | 0.0198
TCGAGTCCTTGGGTTCTAACCTGTTGCCT (site TCGAGTTCTAG) | 0.0383
CCTAATACTTGGGTTCTAACCTGTTGCTT (site CCTAATACTAA) | 0.155
ACAGTGTCTTGGGTTCTAACCTGTTGCGG (site ACAGTGTCTCC) | 2.77

Turning now to a further record.
Lookup result for CGGCATACTTGGGTTCTAACCTGTTGCCT (site CTGCATACTAG) ; measured recombinant barcode read abundance (log10): 0
